B1: library; numbered along this chain (parent)
chain: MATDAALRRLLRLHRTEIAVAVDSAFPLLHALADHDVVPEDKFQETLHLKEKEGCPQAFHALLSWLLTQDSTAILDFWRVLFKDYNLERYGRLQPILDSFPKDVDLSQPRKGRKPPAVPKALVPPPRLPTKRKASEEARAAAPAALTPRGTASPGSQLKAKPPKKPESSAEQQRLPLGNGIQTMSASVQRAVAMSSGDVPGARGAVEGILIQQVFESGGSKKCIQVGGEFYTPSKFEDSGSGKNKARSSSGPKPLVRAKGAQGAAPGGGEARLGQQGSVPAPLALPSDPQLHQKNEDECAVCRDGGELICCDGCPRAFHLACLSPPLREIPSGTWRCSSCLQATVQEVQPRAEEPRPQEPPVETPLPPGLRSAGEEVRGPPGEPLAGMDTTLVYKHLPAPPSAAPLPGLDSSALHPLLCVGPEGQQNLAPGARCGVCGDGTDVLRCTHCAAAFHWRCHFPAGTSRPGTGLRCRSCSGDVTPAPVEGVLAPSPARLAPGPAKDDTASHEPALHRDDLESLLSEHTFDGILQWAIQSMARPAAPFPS

Variants of: B1
experimentSummary: AIRE transcriptional activation functional score (insulin promoter-GFP; nonsense median 0, synonymous median 1) (normalised score); higher = higher AIRE activity (more reporter activation)
conditions: with insulin promoter-GFP reporter in HEK293
property: AIRE transcriptional activation functional score
Would you mind answering with just the numeric figure?

Solved cases below.
[[record]]
variantstring = "K259G"
numericvalue = -0.585

[[record]]
variantstring = "D198L"
numericvalue = 0.549

[[record]]
variantstring = "P368Q"
numericvalue = 0.776

[[record]]
variantstring = "S372A"
numericvalue = 1.16

[[record]]
variantstring = "L397T"
numericvalue = 0.852

[[record]]
variantstring = "I211M"
numericvalue = 0.504

[[record]]
variantstring = "H507Y"
numericvalue = 1.18

[[record]]
variantstring = "W78G"
numericvalue = 0.214

[[record]]
variantstring = "G269M"
numericvalue = 0.571

[[record]]
variantstring = "G218Y"
numericvalue = 0.677


Input line: So what's the measured AIRE transcriptional activation functional score for this one? P544F
Output line: 0.586

Input line: So what's the measured AIRE transcriptional activation functional score for this one? G333D
Output line: 0.864

Input line: So what's the measured AIRE transcriptional activation functional score for this one? H415E
Output line: 1.32

Measured values drawn from the supplement of paper PMC12667976 for this set.
